// provenance: BigSolDB 2.1

Settings: in ethanol, 293.15 K
READOUT_NAME: solubility (mole fraction)
Please reply with the number alone, leaving off any unit.

## Input Dear colleague, I am looking for the recorded solubility (mole fraction) of the following molecule: `C[C@H]1COc2c(N3CCN(C)CC3)c(F)c(N)c3c(=O)c(C(=O)O)cn1c23.Cl`
## Output 1.59e-05

---

Settings: in acetonitrile, 318.15 K
READOUT_NAME: solubility (mole fraction)
Please reply with the number alone, leaving off any unit.

## Input Dear colleague, I am looking for the recorded solubility (mole fraction) of the following compound: `C[C@H]1COc2c(N3CCN(C)CC3)c(F)c(N)c3c(=O)c(C(=O)O)cn1c23.Cl`
## Output 7.84e-06
